targetOrTestSystem: human glucagon receptor (human) (UniProt P47871)
Sequence (P47871 26-477): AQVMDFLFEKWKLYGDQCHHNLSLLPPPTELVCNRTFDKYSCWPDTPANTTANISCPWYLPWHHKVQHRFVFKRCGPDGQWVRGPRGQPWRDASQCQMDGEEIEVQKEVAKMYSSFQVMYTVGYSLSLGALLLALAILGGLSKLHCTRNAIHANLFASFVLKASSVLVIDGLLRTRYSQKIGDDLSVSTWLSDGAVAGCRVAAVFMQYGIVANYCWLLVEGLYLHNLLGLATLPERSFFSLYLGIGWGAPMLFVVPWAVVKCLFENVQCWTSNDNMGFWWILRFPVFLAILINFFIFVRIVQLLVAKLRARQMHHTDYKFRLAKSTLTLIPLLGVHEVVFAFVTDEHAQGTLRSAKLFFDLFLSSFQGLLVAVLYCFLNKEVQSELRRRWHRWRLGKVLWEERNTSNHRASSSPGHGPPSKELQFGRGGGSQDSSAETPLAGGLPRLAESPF
experimentDescription: cell-based or functional assay
Answer each item with its documented Relative cAMP EC50.
The response must be a number in nM with no trailing unit.

What value of Relative cAMP EC50 has been reported for the following binder? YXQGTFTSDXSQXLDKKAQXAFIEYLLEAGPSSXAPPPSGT (C-terminal amide; acylated; synthetic construct; SITE 2: note = 2-Aminoisobutyric Acid; SITE 10: note = 3-(4-Pyridyl)-L-alanine; SITE 13: note = alpha-methyl-leucine; SITE 17: note = Lysine is chemically modified through conjugation of the epsilon-amino group of the Lysine side chain with (2-[2-(2-Amino-ethoxy)-ethoxy]-acetyl)) [Example 824]
7.92

Would you kindly repeat that for YXQGTFTSDFSKXLDKKAQXAFIEYLLEXGPSSGAPPPGEG (synthetic construct; SITE 2: note = 2-Aminoisobutyric Acid; SITE 13: note = alpha-methyl-leucine; SITE 17: note = Lysine is chemically modified through conjugation of the epsilon-amino group of the Lysine side chain with (2-[2-(2-Amino-ethoxy)-ethoxy]-acetyl)2-(gamma-Glu)-CO-(CH2 )18-CO2H; SITE 20:) [Example 55] ?
5.2

Entry to check: YXQGTFTSDXSQXLDKKAQXAFIEXLIEXGPSSGAPPPSGTGE (Aib, 4Pal, αMeL, Me4Pal; acylated Lys; C-terminal amide; synthetic construct; SITE 2: note = 2-Aminoisobutyric Acid; SITE 10: note = 3-(4-Pyridyl)-L-alanine; SITE 13: note = alpha-methyl-leucine; SITE 17: note = Lysine is chemically modified through conjugation of the epsilon-amino group of the Lysine side chain with (gamma-Glu)2-CO-(CH2)16-CO2H; SITE 20:) [Example 1119]
7.61
